Values from paper PMC6369428

Assay: In vivo pharmacokinetics study in fasted rats
Design: species or system Sprague Dawley rats
Details: both sexes, Sprague Dawley, rat, plasma, po, 16 mg/kg, BIC in plasma, oral suspension, 16 mg/kg BIC, read-out: BIC Cmax
endpoint: Cmax (ng/mL)

1. CC(O)(CS(=O)(=O)c1ccc(F)cc1)C(=O)Nc1ccc(C#N)c(C(F)(F)F)c1 (stereo not shown) [Crystalline BIC, bicalutamide]: 1660

----------
Test: Saturation solubility studies in FaSSIF
Assay type: physicochemical
Conditions: crystalline drugs, FaSSIF pH 6.5, after 72 h with excess drug powder
endpoint: solubility at 72 h (µg/mL)

1. CC(=O)O[C@@]12CO[C@@H]1C[C@H](O)[C@@]1(C)C(=O)[C@H](O)C3=C(C)[C@@H](OC(=O)[C@H](O)[C@@H](NC(=O)OC(C)(C)C)c4ccccc4)C[C@@](O)([C@@H](OC(=O)c4ccccc4)[C@H]21)C3(C)C [DTX, Docetaxel]: 7.5
2. CC(O)(CS(=O)(=O)c1ccc(F)cc1)C(=O)Nc1ccc(C#N)c(C(F)(F)F)c1 (centres unmarked) [BIC, bicalutamide]: 3.05

----------
Experiment: In vivo pharmacokinetics study in fasted rats
Set-up: species or system Sprague Dawley rats
Conditions: both sexes, Sprague Dawley, rat, plasma, iv, 1 mg, intravenous bolus, 1 mg/rat (4–7 mg/kg), read-out: DTX Cmax
Protocol: Healthy female and male Sprague Dawley rats of 7 weeks age weighing 140–240 g (Charles River, Denmark), were used for the experiments. […] The bioanalysis of DTX and BIC in rat plasma was carried out using HPLC coupled with mass spectrometric (MS) detection. […] The dried content of the vial was reconstituted using 150 μL ACN:H2O (1:1 v/v) and measured by LC-MS/MS. […]
endpoint: Cmax (ng/mL)

1) CC(=O)O[C@@]12CO[C@@H]1C[C@H](O)[C@@]1(C)C(=O)[C@H](O)C3=C(C)[C@@H](OC(=O)[C@H](O)[C@@H](NC(=O)OC(C)(C)C)c4ccccc4)C[C@@](O)([C@@H](OC(=O)c4ccccc4)[C@H]21)C3(C)C: 7210

----------
Assay: In vivo pharmacokinetics study in fasted rats
Set-up: species or system Sprague Dawley rats
Settings: intravenous bolus, 1 mg/rat (4–7 mg/kg), mean ± SEM
endpoint: BIC AUC

1) CC(O)(CS(=O)(=O)c1ccc(F)cc1)C(=O)Nc1ccc(C#N)c(C(F)(F)F)c1 (stereo not shown) [BIC, bicalutamide]: 317 µg/mL × 24h

----------
Assay: In vivo pharmacokinetics study in fasted rats
Parameters: species or system Sprague Dawley rats
Conditions: both sexes, Sprague Dawley, rat, plasma, po, 30 mg/kg, DTX in plasma, oral suspension, 30 mg/kg DTX, read-out: DTX Cmax
endpoint: Cmax

1. CC(=O)O[C@@]12CO[C@@H]1C[C@H](O)[C@@]1(C)C(=O)[C@H](O)C3=C(C)[C@@H](OC(=O)[C@H](O)[C@@H](NC(=O)OC(C)(C)C)c4ccccc4)C[C@@](O)([C@@H](OC(=O)c4ccccc4)[C@H]21)C3(C)C: 15 ng/mL

----------
Experiment: In vivo pharmacokinetics study in fasted rats
Set-up: species or system Sprague Dawley rats
Settings: both sexes, Sprague Dawley, rat, plasma, iv, 1 mg, intravenous bolus, 1 mg/rat (4–7 mg/kg), read-out: BIC Cmax
endpoint: Cmax (ng/mL)

1. CC(O)(CS(=O)(=O)c1ccc(F)cc1)C(=O)Nc1ccc(C#N)c(C(F)(F)F)c1 (stereo not shown) [BIC, bicalutamide]: 11300
